Data provenance: patent US6998239

# assay-target: T1, human CCX CKR with N-terminal Flag epitope, stably expressed on HEK293 cells, Q9NPB9
# T1 chain: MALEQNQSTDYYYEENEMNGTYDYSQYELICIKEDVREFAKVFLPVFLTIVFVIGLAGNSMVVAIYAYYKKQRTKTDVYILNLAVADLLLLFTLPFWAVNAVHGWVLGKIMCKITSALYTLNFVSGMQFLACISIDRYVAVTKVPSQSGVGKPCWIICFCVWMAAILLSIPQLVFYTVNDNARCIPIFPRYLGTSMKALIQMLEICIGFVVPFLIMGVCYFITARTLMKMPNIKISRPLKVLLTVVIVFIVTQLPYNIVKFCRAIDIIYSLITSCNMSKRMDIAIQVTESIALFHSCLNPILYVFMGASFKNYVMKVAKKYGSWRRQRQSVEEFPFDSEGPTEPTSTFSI
# experiment-description: 125I-ELC competition binding
# condition-notes: ligand; chains chain; remark: other sources report otherwise
pIC50: −log10 of the molar value.
quantity-name: pIC50

binder	observed-result
BLC (B-lymphocyte chemoattractant), O43927 23-109 (protein) VLEVYYTSLRCRCVQESSVFIPRRFIDRIQILPRGNGCPRKEIIVWKKNKSIVCVDPQAEWIQRMMEVLRKRSSSTLPVPVFKRKIP	6.85
